- MEASUREMENT_TARGET: human SCD1 (Homo sapiens)
- Construct: expressed in transfected cells; host or cells: yeast strain with OLE1 deleted, plasmid-borne human SCD1 (selected in SD-Ura)
- Sequence (O00767 1-359): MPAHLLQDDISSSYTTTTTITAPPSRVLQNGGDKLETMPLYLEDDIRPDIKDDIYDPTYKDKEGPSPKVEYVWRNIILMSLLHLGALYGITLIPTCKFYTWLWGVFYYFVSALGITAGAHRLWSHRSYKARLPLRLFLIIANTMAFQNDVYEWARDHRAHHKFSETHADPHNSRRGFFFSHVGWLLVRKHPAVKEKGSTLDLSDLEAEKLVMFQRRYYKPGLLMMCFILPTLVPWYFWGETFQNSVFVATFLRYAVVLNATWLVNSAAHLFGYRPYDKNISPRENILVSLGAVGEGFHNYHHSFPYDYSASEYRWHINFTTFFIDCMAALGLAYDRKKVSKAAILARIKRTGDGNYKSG
- ASSAY_NAME: Growth inhibition of yeast strain expressing human SCD1 as sole desaturase (OLE1 deleted), OD600 readout
- Format: cell-based
- ASSAY_CONTEXT: yeast strain expressing human SCD1 as sole desaturase; growth (OD600) after 40 h at 30° C.; read-out: SCD1 IC50
Entries and their IC50 values follow.
MEASUREMENT_LABEL: IC50 (µM)

1) Cn1cc(C(=O)Nc2ccc(COc3cccc(Cl)c3)cn2)ccc1=O [Compound 172]
2.29
2) CN1N=C(C(=O)Nc2ncc(Cc3cccc(Cl)c3)s2)CCC1=O [Compound 207]
0.09
3) Cn1nc(C(=O)Nc2ccc(Cc3ccc(F)c(C#N)c3)cn2)ccc1=O [Compound 564]
1.4
4) CN(Cc1ccc(C(=O)Nc2ccc(Cc3cccc(Cl)c3)cn2)cn1)C(=O)OC(C)(C)C [Compound 348]
7.37

---

- MEASUREMENT_TARGET: human SCD5 (Homo sapiens, UniProt Q86SK9)
- Construct: expressed in transfected cells; host or cells: yeast strain with OLE1 deleted, plasmid-borne human SCD5 (selected in SD-Ura)
- Sequence (Q86SK9 1-330): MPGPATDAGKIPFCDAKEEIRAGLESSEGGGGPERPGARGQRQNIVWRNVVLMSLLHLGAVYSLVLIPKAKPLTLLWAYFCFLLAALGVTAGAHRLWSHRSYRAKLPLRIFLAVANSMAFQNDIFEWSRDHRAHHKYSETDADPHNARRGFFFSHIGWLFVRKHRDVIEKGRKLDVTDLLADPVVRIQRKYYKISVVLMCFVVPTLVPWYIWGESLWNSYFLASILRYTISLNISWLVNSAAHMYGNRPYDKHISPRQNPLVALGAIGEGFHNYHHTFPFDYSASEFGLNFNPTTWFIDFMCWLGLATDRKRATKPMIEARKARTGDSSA
- ASSAY_NAME: Growth inhibition of yeast strain expressing human SCD5 as sole desaturase (OLE1 deleted), OD600 readout
- Type: cell-based
- ASSAY_CONTEXT: yeast strain expressing human SCD5 as sole desaturase; growth (OD600) after 40 h at 30° C.; read-out: SCD5 IC50
Entries and their IC50 values follow.
MEASUREMENT_LABEL: IC50 (nM)

1) Cc1cc(C(=O)Nc2ccc(Cc3ccc(F)c(F)c3)cn2)nn(C)c1=O
110
2) COc1nccc(C(=O)Nc2ccc(Cc3cccc(F)c3)cn2)n1
20
3) CN1N=C(C(=O)Nc2ccc(CCc3cccc(Cl)c3)nn2)CCC1=O
1590
4) CN1N=C(c2nc3cc(Cc4cccc(Cl)c4)cnc3[nH]2)CCC1=O
4740
5) Cn1ccc(NC(=O)c2ccc(Cc3cccc(F)c3)cn2)n1
10
6) CN(Cc1ccc(C(=O)Nc2ccc(Cc3cccc(Cl)c3)cn2)cn1)C(=O)OC(C)(C)C
4960
7) O=C(Nc1ccc(Cc2cccc(F)c2)cn1)c1ccnc(C2CC2)n1
14
8) CN1N=C(C(=O)Nc2ccc(COc3cccc(Cl)c3)cn2)CCC1=O
50
9) CC(O)c1ccc(C(=O)Nc2ccc(Cc3cc(F)cc(F)c3)cn2)cn1 (stereo not drawn)
170
10) CN1N=C(C(=O)Nc2ccc(Oc3ccccc3Cl)cn2)CCC1=O
28100
11) Cn1nc(C(=O)Nc2ccc(Cc3cc(F)ccc3F)cn2)ccc1=O
170
12) Cc1ncc(C(=O)Nc2ccc(Cc3cc(F)cc(F)c3)cn2)cn1
62
13) Cn1cc(C(=O)Nc2ccc(Cc3cc(F)c(F)c(F)c3)nn2)ccc1=O
10600
14) O=C(Nc1ccc(Cc2cccc(F)c2)cn1)c1cc2ncncc2s1
10
15) O=C(Nc1ccc(Cc2cccc(F)c2)cn1)c1ccn(C(F)(F)F)n1
770
16) Cn1cc(C(=O)Nc2ccc(Oc3cccc(Cl)c3)cn2)ccc1=O
1640
17) O=C(Nc1ccc(Cc2cccc(Cl)c2)cn1)c1cnc(Cl)c(F)c1
460
18) Cn1cc(NC(=O)c2ccc(Cc3cccc(Cl)c3)nn2)ccc1=O
5070
19) O=C(Nc1ccc(Cc2cc(F)cc(Cl)c2)cn1)c1ccc(=O)n(C2CC2)n1
10
20) CN1N=C(C(=O)Nc2ccc(Cc3cccs3)nn2)CCC1=O
14800
21) COc1cc(Cc2ccc(NC(=O)c3ccc(=O)n(C)n3)nc2)ccc1F
70
22) CCCn1nc(C(=O)Nc2ccc(Cc3cccc(F)c3)cn2)ccc1=O
3910
23) CN1N=C(C(=O)Nc2ccc(Cc3cccc(C4CC4)c3)cn2)CCC1=O
2490
24) CN1N=C(C(=O)Nc2ccc(Cc3cccc(Cl)c3)cn2)CCC1=O
450
25) COc1cc(C(=O)Nc2ccc(Cc3cccc(F)c3)cn2)nn(C)c1=O
220
26) CCn1cc(C(=O)Nc2ccc(Cc3cc(F)cc(C#N)c3)cn2)cn1
120
27) Cn1nc(C(=O)Nc2ccc(Cc3cc(F)cc(Cl)c3)cn2)ccc1=O
10
